The measurements presented in this section are drawn from the supplement of paper PMC11732987.

biological target: UCHL5 (UniProt Q9Y5K5); experiment: log2 ratio of Biotin-Ahx-Ub-VS probe labelling (fragment/DMSO); higher = less target engagement (more negative = stronger competition), active = hit call of the paper (q ≤ 0.05, log2 ratio ≤ -1); conditions: compound concentration: 200 uM; treatment time: 3 h
Sequence (Q9Y5K5 whole entry, the tested form may be a part): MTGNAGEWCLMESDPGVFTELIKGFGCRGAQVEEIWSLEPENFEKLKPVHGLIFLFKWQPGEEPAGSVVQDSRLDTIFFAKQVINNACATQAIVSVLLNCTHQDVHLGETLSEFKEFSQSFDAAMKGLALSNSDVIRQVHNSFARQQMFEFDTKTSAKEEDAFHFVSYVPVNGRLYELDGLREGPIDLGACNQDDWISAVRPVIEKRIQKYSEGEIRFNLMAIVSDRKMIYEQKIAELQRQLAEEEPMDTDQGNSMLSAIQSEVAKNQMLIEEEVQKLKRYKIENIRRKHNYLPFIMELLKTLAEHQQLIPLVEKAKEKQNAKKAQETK
measure: log2 ratio of Biotin-Ahx-Ub-VS probe labelling
Write the value as a bare number.

Return log2 ratio of Biotin-Ahx-Ub-VS probe labelling measured with UCHL5 (UniProt Q9Y5K5) given this compound: O=C(CCl)Nc1cccc2ncccc12 -0.321

Now try O=C(CCl)Nc1cc(Cl)ccc1C(=O)O . -0.0926

Now try O=C(CCl)N1CCC2(CCC(O)CC2)CC1 . -0.157

Now try O=C(CCl)N1CCCC1c1ccsc1 (configuration not stated) . -0.228

Now try O=C(CCl)N1CCC(=C(F)CO)C1 . 0.0121

----------
molecular target: USP46 (UniProt P62068); assay: log2 ratio of Biotin-Ahx-Ub-VS probe labelling (fragment/DMSO); higher = less target engagement (more negative = stronger competition), active = hit call of the paper (q ≤ 0.05, log2 ratio ≤ -1); conditions: compound concentration: 200 uM; treatment time: 3 h
Sequence (P62068 whole entry, the tested form may be a part): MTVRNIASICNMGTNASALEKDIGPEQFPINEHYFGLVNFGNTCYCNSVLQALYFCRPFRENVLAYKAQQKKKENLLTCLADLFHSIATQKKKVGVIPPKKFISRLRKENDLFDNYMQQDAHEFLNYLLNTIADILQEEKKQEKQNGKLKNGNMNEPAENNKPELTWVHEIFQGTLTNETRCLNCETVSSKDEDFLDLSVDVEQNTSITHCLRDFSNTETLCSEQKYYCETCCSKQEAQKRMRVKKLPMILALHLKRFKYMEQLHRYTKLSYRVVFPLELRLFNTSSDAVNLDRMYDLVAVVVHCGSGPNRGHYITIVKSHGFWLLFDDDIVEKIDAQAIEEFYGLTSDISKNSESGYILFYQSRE
Everything with log2 ratio of Biotin-Ahx-Ub-VS probe labelling lower than 0.01 is not fulfilled; everything else, including exactly 0.01, is fulfilled.

# molecule, target desc, class assignment
rows = [
    ("CN(C)C(=O)c1ccc(NC(=O)CCl)cc1", "USP46 (UniProt P62068)", "not fulfilled"),
]

Threshold query (log2 ratio of Biotin-Ahx-Ub-VS probe labelling >= 0.01) on CC(=O)C1CCCCN1C(=O)CCl (configuration not stated) fulfilled

Now try O=C(CCl)Nc1ccc(Cl)c(F)c1 . not fulfilled

Now try O=C(CCl)N1CCCCCC1c1ncon1 (configuration not stated) . fulfilled

Now try CN(CCC(O)c1ccc(Br)cc1)C(=O)CCl (configuration not stated) . not fulfilled

Now try O=C(CCl)NC1CCS(=O)(=O)c2ccccc21 (configuration not stated) . not fulfilled

Now try N#Cc1ccc(CNC(=O)CCl)cc1 . fulfilled

----------
target: PSMD7 (UniProt P51665); test: log2 ratio of Biotin-Ahx-Ub-VS probe labelling (fragment/DMSO); higher = less target engagement (more negative = stronger competition), active = hit call of the paper (q ≤ 0.05, log2 ratio ≤ -1); settings: compound concentration: 200 uM; treatment time: 3 h
Sequence (P51665 whole entry, the tested form may be a part): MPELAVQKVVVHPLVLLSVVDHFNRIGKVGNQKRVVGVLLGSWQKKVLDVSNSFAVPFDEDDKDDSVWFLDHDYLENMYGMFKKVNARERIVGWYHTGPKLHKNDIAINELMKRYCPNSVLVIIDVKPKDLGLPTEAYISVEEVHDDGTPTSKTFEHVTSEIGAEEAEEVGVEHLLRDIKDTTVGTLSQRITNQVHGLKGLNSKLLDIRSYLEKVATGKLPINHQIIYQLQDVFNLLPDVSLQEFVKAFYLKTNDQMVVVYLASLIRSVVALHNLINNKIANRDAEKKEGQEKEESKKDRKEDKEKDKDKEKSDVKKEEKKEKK
Reported values of log2 ratio of Biotin-Ahx-Ub-VS probe labelling for individual entries
Write the value as a bare number.

# molecule, target desc, observed
measured = [
    ("CN(C)S(=O)(=O)c1ccccc1CNC(=O)CCl", "PSMD7 (UniProt P51665)", -0.18),
    ("O=C(CCl)N[C@H]1CCS(=O)(=O)c2ccccc21", "PSMD7 (UniProt P51665)", -0.0772),
    ("O=C(CCl)NC1(c2ccc3c(c2)OCCO3)CCCC1", "PSMD7 (UniProt P51665)", -0.208),
]

Return log2 ratio of Biotin-Ahx-Ub-VS probe labelling measured with PSMD7 (UniProt P51665) given this molecule: Cc1cccn2cc(CCNC(=O)CCl)nc12.Cl -0.207

Now try O=C(CCl)NCC1(c2ccccc2)CC1 . -0.151

Now try C#Cc1cccc(NC(=O)CCl)c1 . -0.0915

Now try COc1ccccc1C(C)NC(=O)CCl (centres undefined) . -0.451

Now try O=C(CCl)Nc1ccc2c(c1)OC(F)(F)O2 . -0.159

Now try O=C(CCl)N1CCC(C(=O)N2CCCC2)CC1 . 0.0529

----------
Reported values of log2 ratio of Biotin-Ahx-Ub-VS probe labelling for individual entries
biological target: BAP1 (UniProt Q92560); test: log2 ratio of Biotin-Ahx-Ub-VS probe labelling (fragment/DMSO); higher = less target engagement (more negative = stronger competition), active = hit call of the paper (q ≤ 0.05, log2 ratio ≤ -1); settings: compound concentration: 200 uM; treatment time: 3 h
Sequence (Q92560 whole entry, the tested form may be a part): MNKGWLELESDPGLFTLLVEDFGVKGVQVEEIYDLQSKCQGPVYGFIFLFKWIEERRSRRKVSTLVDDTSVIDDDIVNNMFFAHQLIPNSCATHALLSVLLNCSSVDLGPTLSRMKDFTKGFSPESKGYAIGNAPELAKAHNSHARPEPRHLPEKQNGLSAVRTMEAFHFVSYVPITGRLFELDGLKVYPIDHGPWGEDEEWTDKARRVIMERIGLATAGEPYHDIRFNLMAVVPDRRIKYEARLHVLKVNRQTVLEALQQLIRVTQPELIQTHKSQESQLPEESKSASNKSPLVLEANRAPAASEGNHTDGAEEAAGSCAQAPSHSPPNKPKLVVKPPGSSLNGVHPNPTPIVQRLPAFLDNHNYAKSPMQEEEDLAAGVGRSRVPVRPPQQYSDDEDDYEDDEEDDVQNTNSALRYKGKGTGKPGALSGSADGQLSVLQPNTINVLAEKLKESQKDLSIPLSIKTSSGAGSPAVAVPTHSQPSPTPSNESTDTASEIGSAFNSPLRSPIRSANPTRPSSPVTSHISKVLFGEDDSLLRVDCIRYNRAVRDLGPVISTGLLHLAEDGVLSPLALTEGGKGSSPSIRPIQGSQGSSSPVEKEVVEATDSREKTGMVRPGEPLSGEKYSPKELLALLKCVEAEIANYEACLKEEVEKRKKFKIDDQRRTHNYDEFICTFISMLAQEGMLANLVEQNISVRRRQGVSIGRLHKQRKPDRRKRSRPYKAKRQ
Write the value as a bare number.

Completed entries (count: 5):
# compound, target desc, observed
data = [
    ("Cc1ccccc1CN(C)C(=O)CCl", "BAP1 (UniProt Q92560)", -2.27),
    ("O=C(CCl)N1CCC(C(=O)N2CCCCCC2)CC1", "BAP1 (UniProt Q92560)", -0.398),
    ("O=C(CCl)Nc1ccc(F)cc1F", "BAP1 (UniProt Q92560)", -2.82),
    ("CC(=O)C1CCCCN1C(=O)CCl (centres undefined)", "BAP1 (UniProt Q92560)", -0.0781),
    ("COc1cccc(CN(C)C(=O)CCl)c1", "BAP1 (UniProt Q92560)", -2.68),
]

Please report the recorded log2 ratio of Biotin-Ahx-Ub-VS probe labelling for CS(=O)(=O)c1ccc(NC(=O)CCl)cc1 . -4.05

Now try O=C(CCl)Nc1cc2c(cc1Cl)OCCCO2 . -3.43

Now try O=C(CCl)NC1CCCCNC1=O (centres undefined) . -0.683

Now try O=C(CCl)NCCC1=CCCCC1 . -0.56

----------
target: UniProt P51784; assay: log2 ratio of Biotin-Ahx-Ub-VS probe labelling (fragment/DMSO); higher = less target engagement (more negative = stronger competition), active = hit call of the paper (q ≤ 0.05, log2 ratio ≤ -1); conditions: compound concentration: 200 uM; treatment time: 3 h
Sequence (P51784 whole entry, the tested form may be a part): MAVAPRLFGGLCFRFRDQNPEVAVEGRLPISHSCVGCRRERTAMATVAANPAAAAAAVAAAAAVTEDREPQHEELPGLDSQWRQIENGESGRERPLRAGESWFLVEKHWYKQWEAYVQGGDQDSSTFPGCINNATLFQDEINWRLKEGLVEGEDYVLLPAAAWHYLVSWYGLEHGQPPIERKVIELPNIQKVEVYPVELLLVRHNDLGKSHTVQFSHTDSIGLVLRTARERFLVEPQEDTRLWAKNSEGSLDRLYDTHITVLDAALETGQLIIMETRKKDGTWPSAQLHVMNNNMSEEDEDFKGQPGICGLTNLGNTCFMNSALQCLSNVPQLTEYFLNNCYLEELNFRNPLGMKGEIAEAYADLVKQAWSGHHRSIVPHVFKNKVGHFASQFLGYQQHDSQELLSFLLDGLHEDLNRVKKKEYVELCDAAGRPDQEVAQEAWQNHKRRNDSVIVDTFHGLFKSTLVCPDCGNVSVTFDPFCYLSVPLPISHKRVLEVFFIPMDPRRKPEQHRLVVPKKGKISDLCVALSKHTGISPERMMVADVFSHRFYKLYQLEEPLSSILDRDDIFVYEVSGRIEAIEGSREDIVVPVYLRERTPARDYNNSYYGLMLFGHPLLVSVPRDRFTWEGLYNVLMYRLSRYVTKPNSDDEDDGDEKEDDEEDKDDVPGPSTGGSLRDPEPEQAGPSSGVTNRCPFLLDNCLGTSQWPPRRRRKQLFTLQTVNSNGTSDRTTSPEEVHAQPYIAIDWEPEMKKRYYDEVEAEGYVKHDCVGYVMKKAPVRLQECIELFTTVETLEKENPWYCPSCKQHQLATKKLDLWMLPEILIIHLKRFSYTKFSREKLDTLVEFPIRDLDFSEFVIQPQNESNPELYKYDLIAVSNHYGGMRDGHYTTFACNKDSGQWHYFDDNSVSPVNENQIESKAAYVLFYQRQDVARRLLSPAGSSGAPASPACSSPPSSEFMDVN
Everything with log2 ratio of Biotin-Ahx-Ub-VS probe labelling lower than 0.09 is not satisfied; everything else, including exactly 0.09, is satisfied.

Worked examples, 5 molecules total:
# molecule, target desc, class assignment
measured = [
    ("Cc1ncc2c(n1)CCN(C(=O)CCl)C2", "UniProt P51784", "not satisfied"),
    ("COCC[C@@H](NC(=O)CCl)c1ccccc1", "UniProt P51784", "satisfied"),
    ("O=C(CCl)N1CCC(c2ccn[nH]2)C1 (centres undefined)", "UniProt P51784", "not satisfied"),
    ("CCN1C(=O)C2CN(C(=O)CCl)CCN2C1=O (centres undefined)", "UniProt P51784", "not satisfied"),
    ("O=C(CCl)NCC1(c2ccccc2)CC1", "UniProt P51784", "satisfied"),
]

Threshold query (log2 ratio of Biotin-Ahx-Ub-VS probe labelling >= 0.09) on CS(=O)(=O)c1ccc(NC(=O)CCl)cc1 not satisfied

Now try Cc1ncsc1CCNC(=O)CCl . satisfied

Now try CCN(C(=O)CCl)C1CCS(=O)(=O)C1 (centres undefined) . not satisfied

Now try Cc1nnc(C(NC(=O)CCl)c2ccccc2)n1C (centres undefined) . satisfied

Now try O=C(CCl)NCc1ccc(N2CCOCC2)nc1 . not satisfied

Now try Cc1cccn2cc(CCNC(=O)CCl)nc12.Cl . not satisfied

Now try Cc1cccc(N(CCC#N)C(=O)CCl)c1C . not satisfied

Now try O=C(CCl)NC1CCS(=O)(=O)c2ccccc21 (centres undefined) . not satisfied

Now try O=C(CCl)Nc1ccc(N2CCCC2=O)cc1 . satisfied

----------
biological target: USP46 (UniProt P62068); assay: log2 ratio of Biotin-Ahx-Ub-VS probe labelling (fragment/DMSO); higher = less target engagement (more negative = stronger competition), active = hit call of the paper (q ≤ 0.05, log2 ratio ≤ -1); conditions: compound concentration: 200 uM; treatment time: 3 h
measure: log2 ratio of Biotin-Ahx-Ub-VS probe labelling
Write the value as a bare number.

Completed entries (count: 5):
# compound, observed
rows = [
    ("O=C(CCl)NCc1ccc(N2CCOCC2)nc1", 0.0882),
    ("O=C(CCl)NCCc1ccc2c(c1)OCCO2", 0.147),
    ("CC(NC(=O)CCl)c1cnn(C2CC2)c1 (configuration not stated)", -0.113),
    ("CCN(Cc1ccc(C#N)cc1F)C(=O)CCl", -0.114),
    ("Cc1cccc(NC(=O)CCl)c1C", -0.22),
]

Please report the recorded log2 ratio of Biotin-Ahx-Ub-VS probe labelling for Cc1ccc(N2CCC(NC(=O)CCl)C2=O)cc1 (configuration not stated) . 0.123

Now try O=C(CCl)N1CC=C(c2c[nH]c3ccccc23)CC1 . -1.44

----------
molecular target: USP8 (UniProt P40818); assay: log2 ratio of Biotin-Ahx-Ub-VS probe labelling (fragment/DMSO); higher = less target engagement (more negative = stronger competition), active = hit call of the paper (q ≤ 0.05, log2 ratio ≤ -1); settings: compound concentration: 200 uM; treatment time: 3 h
Sequence (P40818 whole entry, the tested form may be a part): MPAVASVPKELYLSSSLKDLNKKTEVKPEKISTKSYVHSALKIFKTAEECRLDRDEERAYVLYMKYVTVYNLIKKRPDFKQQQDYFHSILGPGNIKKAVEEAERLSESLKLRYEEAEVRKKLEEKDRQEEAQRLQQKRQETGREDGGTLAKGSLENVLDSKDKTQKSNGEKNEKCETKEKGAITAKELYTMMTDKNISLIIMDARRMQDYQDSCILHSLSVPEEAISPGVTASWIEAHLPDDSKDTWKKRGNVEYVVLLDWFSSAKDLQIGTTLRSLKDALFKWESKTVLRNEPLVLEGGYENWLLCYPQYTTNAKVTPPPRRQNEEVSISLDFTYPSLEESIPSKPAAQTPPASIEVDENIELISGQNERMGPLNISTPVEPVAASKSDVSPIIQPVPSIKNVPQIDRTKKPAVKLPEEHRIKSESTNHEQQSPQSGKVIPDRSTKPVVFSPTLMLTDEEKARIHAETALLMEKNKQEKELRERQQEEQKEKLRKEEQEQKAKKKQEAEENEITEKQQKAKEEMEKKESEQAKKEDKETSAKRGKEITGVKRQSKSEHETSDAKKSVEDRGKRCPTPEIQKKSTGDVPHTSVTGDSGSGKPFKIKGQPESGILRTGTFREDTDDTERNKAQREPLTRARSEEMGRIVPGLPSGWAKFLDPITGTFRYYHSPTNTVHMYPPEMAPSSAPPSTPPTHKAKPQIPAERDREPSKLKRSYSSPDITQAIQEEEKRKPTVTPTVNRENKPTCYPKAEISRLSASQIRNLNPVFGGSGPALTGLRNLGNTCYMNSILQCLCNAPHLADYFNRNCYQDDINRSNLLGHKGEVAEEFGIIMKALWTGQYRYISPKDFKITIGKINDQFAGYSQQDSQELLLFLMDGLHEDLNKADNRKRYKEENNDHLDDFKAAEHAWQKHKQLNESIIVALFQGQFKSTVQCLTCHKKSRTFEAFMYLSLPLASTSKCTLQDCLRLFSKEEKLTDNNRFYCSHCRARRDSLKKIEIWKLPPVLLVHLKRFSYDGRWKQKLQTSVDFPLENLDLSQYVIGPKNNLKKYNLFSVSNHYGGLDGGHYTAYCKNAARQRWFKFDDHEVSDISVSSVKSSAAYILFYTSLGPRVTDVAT
Everything with log2 ratio of Biotin-Ahx-Ub-VS probe labelling lower than -0.2 is not satisfied; everything else, including exactly -0.2, is satisfied.

Worked examples, 4 molecules total:
# molecule, class assignment
data = [
    ("COCC[C@@H](NC(=O)CCl)c1ccccc1", "satisfied"),
    ("CNC(=O)Cn1cc(NC(=O)CCl)cn1", "not satisfied"),
    ("O=C(CCl)N[C@H]1CCS(=O)(=O)c2ccccc21", "satisfied"),
    ("Cl.O=C(CCl)NCCc1ncc(F)cc1F", "not satisfied"),
]

Okay, next one:
Threshold query (log2 ratio of Biotin-Ahx-Ub-VS probe labelling >= -0.2) on CCC(NC(=O)CCl)c1ccc(Cl)cc1 (centres undefined) satisfied
